Entries below carry reported pKi on Muscarinic acetylcholine receptor M1 (Homo sapiens).
Sequence (P11229 whole entry): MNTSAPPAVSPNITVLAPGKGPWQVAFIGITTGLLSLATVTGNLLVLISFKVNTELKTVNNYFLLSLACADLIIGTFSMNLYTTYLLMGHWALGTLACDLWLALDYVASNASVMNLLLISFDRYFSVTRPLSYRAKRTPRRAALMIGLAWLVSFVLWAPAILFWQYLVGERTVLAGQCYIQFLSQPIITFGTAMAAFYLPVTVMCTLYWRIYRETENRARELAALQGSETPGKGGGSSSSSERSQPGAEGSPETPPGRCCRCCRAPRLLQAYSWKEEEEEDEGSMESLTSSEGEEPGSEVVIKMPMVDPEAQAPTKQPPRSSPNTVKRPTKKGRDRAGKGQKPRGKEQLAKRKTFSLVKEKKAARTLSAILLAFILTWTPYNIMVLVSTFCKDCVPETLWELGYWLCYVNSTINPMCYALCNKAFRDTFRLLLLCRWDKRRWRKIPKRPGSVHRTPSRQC
Numbers only, as −log10 of the molar value.

compound=C[C@@H]1OC(=O)[C@H]2C[C@H]3CCCC[C@@H]3[C@@H](CC[C@H]3CCC[C@H](C)N3C)[C@@H]12 experimental_target="Muscarinic acetylcholine receptor M1 (Homo sapiens)" readout_label=pKi result_value=7.49
compound="C[C@@H]1OC(=O)[C@H]2C=C3CCCC[C@@H]3/C(=C/CC3CCC(C)(C)N3C)[C@@H]12 (some centres not stated)" experimental_target="Muscarinic acetylcholine receptor M1 (Homo sapiens)" readout_label=pKi result_value=6.75
compound="CCN1C(C/C=C2\\[C@H]3[C@H](C)OC(=O)[C@H]3C=C3CCCC[C@@H]32)CCC1(C)C (some centres not stated)" experimental_target="Muscarinic acetylcholine receptor M1 (Homo sapiens)" readout_label=pKi result_value=6.19
compound=C[C@@H]1OC(=O)[C@H]2C[C@H]3CCCC[C@@H]3[C@@H](/C(O)=C/[C@H]3CCC[C@H](C)N3C)[C@@H]12 experimental_target="Muscarinic acetylcholine receptor M1 (Homo sapiens)" readout_label=pKi result_value=5.80

Query compound follows.
Please report the recorded pKi for C[C@@H]1OC(=O)[C@H]2C[C@H]3CCCC[C@@H]3/C(=C/CC3CCC(C)(C)N3C)[C@@H]12 (some centres not stated) .
6.38
